Source listed as paper PMC3094755.

Biological target: PARP-1 F1+F2 (24-kDa DBD) (Homo sapiens, UniProt P09874 1-214)
Sequence (P09874 1-214): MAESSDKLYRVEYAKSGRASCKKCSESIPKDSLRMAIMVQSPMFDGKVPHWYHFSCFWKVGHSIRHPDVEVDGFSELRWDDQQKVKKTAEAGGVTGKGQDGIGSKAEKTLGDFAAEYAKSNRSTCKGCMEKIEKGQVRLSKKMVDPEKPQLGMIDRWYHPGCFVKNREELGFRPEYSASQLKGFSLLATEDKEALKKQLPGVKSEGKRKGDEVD
Assay: fluorescence anisotropy; 25; 50 mM Tris-HCl pH 7.0, 150 uM ZnSO4, 4 mM DTT, 25 C; NaCl 0-200 mM (T2, as in cof; 10 nM DNA) or 25 mM (T3 mutants; 25 nM DNA)
Conditions: protein: recombinant; label: fluorescein-dT at T8 and T30; circular closed dumbbell, two tetraloops, no nick
PARAMETER MEASURED: pKd
Remember the convention: pKd equals -log10 of concentration in molar.

Prompt line: Give its pKd value. Item: CGGTCGATCGTAAGATCGACCGCGGTCGATCGTAAGATCGACCG (structured_DNA, circular, nick sealed by T4 DNA ligase) [ligated (circular) symmetric 44-nt dumbbell, 2x fluorescein-dT]
Response line: 6.87
